assay_remarks: recombinant UMI read abundance after kanamycin selection (control-corrected) (log10(CPM+1)); higher = more efficient recombination; extreme values may be limits of the assay; sequences stand for … in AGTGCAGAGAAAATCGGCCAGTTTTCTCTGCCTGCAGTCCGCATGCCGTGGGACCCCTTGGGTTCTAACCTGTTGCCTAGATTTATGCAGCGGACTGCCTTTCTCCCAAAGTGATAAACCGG…AGGTTGGTTTCACT; site = the 11-nt donor;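 note: IS621 bridge recombinase in Escherichia coli cells against a fixed T5 target plasmid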
Each entry below carries its reported recombinant UMI read abundance (log10).
Could you keep your reply to the number by itself?

Use the examples below as a reference point.
INSERT INTO results (ordered_residues, data_value) VALUES
  ('TAGCCTGCATGGACCGGTTTTCCCGGTAATCCGTATTTGGT (site TAGCCTGCTAC)', 0.0393),
  ('CCCCAGCCATGGACCGGTTTTCCCGGTAATCCGTATTTGCC (site CCCCAGCCTGG)', 0),
  ('TCCAATTCATGGACCGGTTTTCCCGGTAATCCGTATTTGCC (site TCCAATTCTGG)', 0),
  ('TGGCCGGCATGGACCGGTTTTCCCGGTAATCCGTATTTGGC (site TGGCCGGCTGG)', 0);

Recorded recombinant UMI read abundance (log10) of CGGACCTCATGGACCGGTTTTCCCGGTAATCCGTATTTGCT (site CGGACTTCTAG) , please.
0

Okay, and GTTCAAGCATGGACCGGTTTTCCCGGTAATCCGTATTTGCA (site GTTCCAGCTTG) ?
0
